System: Escherichia coli
procedureSummary: Antibacterial activity against Escherichia coli ATCC 25922 assessed as growth inhibition measured after 18 to 24 hrs by CLSI based broth microdilution method
Assay type: functional
cond: time 18-24 hrs
Peptide text beside a SMILES is read from it.
Entries and their MIC values follow.
assayEndpoint: MIC

>>> recordedvalue("CC(C)C[C@H](NC(=O)[C@H](CC(C)C)NC(=O)[C@H](CCC(=O)O)NC(=O)[C@H](CCCCN)NC(=O)[C@H](CC(C)C)NC(=O)[C@H](CC(C)C)NC(=O)[C@H](CCCCN)NC(=O)[C@H](CCCCN)NC(=O)[C@@H](NC(=O)[C@H](CCCCN)NC(=O)[C@@H]1CCCN1C(=O)[C@H](CC(C)C)NC(=O)[C@@H](N)Cc1ccccc1)C(C)C)C(N)=O (H-FLPKVKKLLKELL-NH2)")
"16 µM"
>>> recordedvalue("CC[C@H](C)[C@H](NC(=O)[C@@H]1CCCN1C(=O)[C@H](CC(C)C)NC(=O)[C@@H](N)Cc1ccccc1)C(=O)N[C@H](C(=O)N[C@@H](C)C(=O)N[C@@H](CCCCN)C(=O)N[C@@H](CC(C)C)C(=O)N[C@@H](CCC(=O)O)C(=O)N[C@@H](CO)C(=O)NCC(=O)N[C@@H](CC(C)C)C(=O)N[C@@H](CC(C)C)C(N)=O)C(C)C (H-FLPIVAKLESGLL-NH2)")
"> 128 µM"

* * *

Entries and their half-life at 10000 µM values follow.
procedureSummary: Stability of the compound in mouse serum at 10 mM assessed as half life by RP-HPLC analysis
Type: ADME, cell-free
Bridge positions count the residues as written; N and C are the ends. Square brackets hold non-standard residues; d marks the D form. Peptide text beside a SMILES is read from it. * marks the point of attachment. X1 = CC[C@H](C)CCCCC(=O)*; Dab = NCC[C@H](N)C(=O)O
assayEndpoint: half-life at 10000 µM (h)

>>> recordedvalue("CC[C@H](C)[C@H](NC(=O)[C@@H]1CCCN1C(=O)[C@H](CC(C)C)NC(=O)[C@@H](N)Cc1ccccc1)C(=O)N[C@H](C(=O)N[C@@H](C)C(=O)N[C@@H](CCCCN)C(=O)N[C@@H](CC(C)C)C(=O)N[C@@H](CC(C)C)C(=O)N[C@@H](CO)C(=O)NCC(=O)N[C@@H](CC(C)C)C(=O)N[C@@H](CC(C)C)C(N)=O)C(C)C (H-FLPIVAKLLSGLL-NH2)")
5.55
>>> recordedvalue("CC[C@H](C)CCCCC(=O)N[C@@H](CCN)C(=O)N[C@H](C(=O)N[C@@H](CCN)C(=O)N[C@H]1CCNC(=O)[C@H]([C@@H](C)O)NC(=O)[C@H](CCN)NC(=O)[C@H](CCN)NC(=O)[C@H](CC(C)C)NC(=O)[C@@H](Cc2ccccc2)NC(=O)[C@H](CCN)NC1=O)[C@@H](C)O (X1-[Dab]T[Dab][Dab][Dab][dF]L[Dab][Dab]T; lactam 4-C)")
12.5
>>> recordedvalue("CC(C)C[C@H](NC(=O)[C@H](CC(C)C)NC(=O)[C@H](CCC(=O)O)NC(=O)[C@H](CCCCN)NC(=O)[C@H](CC(C)C)NC(=O)[C@H](CC(C)C)NC(=O)[C@H](CCCCN)NC(=O)[C@H](C)NC(=O)[C@@H](NC(=O)[C@H](CCCCN)NC(=O)[C@@H]1CCCN1C(=O)[C@H](CC(C)C)NC(=O)[C@@H](N)Cc1ccccc1)C(C)C)C(N)=O (H-FLPKVAKLLKELL-NH2)")
9.64

* * *

procedureSummary: Acute toxicity in BALB/c mouse assessed as mortality at 40 mg/kg, ip administered as single dose measured for 7 days
Type: organism-based
cond: in vivo, time 7 day, read-out: Activity
Peptide text beside a SMILES is read from it.
assayEndpoint: mortality at 168 h (%)

>>> recordedvalue("CC[C@H](C)[C@H](NC(=O)[C@@H]1CCCN1C(=O)[C@H](CC(C)C)NC(=O)[C@@H](N)Cc1ccccc1)C(=O)N[C@H](C(=O)N[C@@H](C)C(=O)N[C@@H](CCCCN)C(=O)N[C@@H](CC(C)C)C(=O)N[C@@H](CC(C)C)C(=O)N[C@@H](CO)C(=O)NCC(=O)N[C@@H](CC(C)C)C(=O)N[C@@H](CC(C)C)C(N)=O)C(C)C (H-FLPIVAKLLSGLL-NH2)")
40
>>> recordedvalue("CC(C)C[C@H](NC(=O)[C@H](CC(C)C)NC(=O)[C@H](CCC(=O)O)NC(=O)[C@H](CCCCN)NC(=O)[C@H](CC(C)C)NC(=O)[C@H](CC(C)C)NC(=O)[C@H](CCCCN)NC(=O)[C@H](C)NC(=O)[C@@H](NC(=O)[C@H](CCCCN)NC(=O)[C@@H]1CCCN1C(=O)[C@H](CC(C)C)NC(=O)[C@@H](N)Cc1ccccc1)C(C)C)C(N)=O (H-FLPKVAKLLKELL-NH2)")
20

* * *

Test system: Erythrocyte
procedureSummary: Hemolytic activity against mouse RBC measured after 1 hrs
Assay type: toxicity, cell-based
Peptide text beside a SMILES is read from it.
assayEndpoint: MHC10 (µM)

>>> recordedvalue("CC(C)C[C@H](NC(=O)[C@H](CC(C)C)NC(=O)[C@H](CCC(=O)O)NC(=O)[C@H](CCCCN)NC(=O)[C@H](CC(C)C)NC(=O)[C@H](CC(C)C)NC(=O)[C@H](CCCCN)NC(=O)[C@H](C)NC(=O)[C@@H](NC(=O)[C@H](CCCCN)NC(=O)[C@@H]1CCCN1C(=O)[C@H](CC(C)C)NC(=O)[C@@H](N)Cc1ccccc1)C(C)C)C(N)=O (H-FLPKVAKLLKELL-NH2)")
202

* * *

System: Escherichia coli
procedureSummary: Antibacterial activity against Escherichia coli ATCC 25922 assessed as growth inhibition measured after 18 to 24 hrs by CLSI based broth microdilution method
Type: functional
cond: time 18-24 hrs
Bridge positions count the residues as written; N and C are the ends. Square brackets hold non-standard residues; d marks the D form. Peptide text beside a SMILES is read from it. * marks the point of attachment. X1 = CC[C@H](C)CCCCC(=O)*; Dab = NCC[C@H](N)C(=O)O
assayEndpoint: MIC

>>> recordedvalue("CC[C@H](C)[C@H](NC(=O)[C@@H]1CCCN1C(=O)[C@H](CC(C)C)NC(=O)[C@@H](N)Cc1ccccc1)C(=O)N[C@H](C(=O)N[C@@H](C)C(=O)N[C@@H](CCCCN)C(=O)N[C@@H](CC(C)C)C(=O)N[C@@H](CC(C)C)C(=O)N[C@@H](CO)C(=O)NCC(=O)N[C@@H](CC(C)C)C(=O)N[C@@H](CCC(=O)O)C(N)=O)C(C)C (H-FLPIVAKLLSGLE-NH2)")
"> 128 µM"
>>> recordedvalue("CC[C@H](C)[C@H](NC(=O)[C@H](CCC(=O)O)NC(=O)[C@H](CC(C)C)NC(=O)[C@@H](N)Cc1ccccc1)C(=O)N[C@H](C(=O)N[C@@H](C)C(=O)N[C@@H](CCCCN)C(=O)N[C@@H](CC(C)C)C(=O)N[C@@H](CC(C)C)C(=O)N[C@@H](CO)C(=O)NCC(=O)N[C@@H](CC(C)C)C(=O)N[C@@H](CC(C)C)C(N)=O)C(C)C (H-FLEIVAKLLSGLL-NH2)")
"> 128 µM"
>>> recordedvalue("CC[C@H](C)CCCCC(=O)N[C@@H](CCN)C(=O)N[C@H](C(=O)N[C@@H](CCN)C(=O)N[C@H]1CCNC(=O)[C@H]([C@@H](C)O)NC(=O)[C@H](CCN)NC(=O)[C@H](CCN)NC(=O)[C@H](CC(C)C)NC(=O)[C@@H](Cc2ccccc2)NC(=O)[C@H](CCN)NC1=O)[C@@H](C)O (X1-[Dab]T[Dab][Dab][Dab][dF]L[Dab][Dab]T; lactam 4-C)")
"4 µM"
>>> recordedvalue("CC[C@H](C)[C@H](NC(=O)[C@@H]1CCCN1C(=O)[C@H](CC(C)C)NC(=O)[C@@H](N)Cc1ccccc1)C(=O)N[C@@H](CCC(=O)O)C(=O)N[C@@H](C)C(=O)N[C@@H](CCCCN)C(=O)N[C@@H](CC(C)C)C(=O)N[C@@H](CC(C)C)C(=O)N[C@@H](CO)C(=O)NCC(=O)N[C@@H](CC(C)C)C(=O)N[C@@H](CC(C)C)C(N)=O (H-FLPIEAKLLSGLL-NH2)")
"> 128 µM"

* * *

Tested on: Escherichia coli
procedureSummary: Antibacterial activity against Escherichia coli ATCC 25922 assessed as growth inhibition measured after 18 to 24 hrs by CLSI based broth microdilution method
Format: functional
cond: time 18-24 hrs
Peptide text beside a SMILES is read from it.
Could you please mark TRUE for values of MIC below 30 µM and FALSE for values at or above it?

>>> grouplabel("CC[C@H](C)[C@H](NC(=O)[C@@H]1CCCN1C(=O)[C@H](CC(C)C)NC(=O)[C@@H](N)Cc1ccccc1)C(=O)N[C@H](C(=O)N[C@@H](C)C(=O)N[C@@H](CCCCN)C(=O)N[C@@H](CC(C)C)C(=O)N[C@@H](CC(C)C)C(=O)N[C@@H](CCCCN)C(=O)NCC(=O)N[C@@H](CC(C)C)C(=O)N[C@@H](CC(C)C)C(N)=O)C(C)C (H-FLPIVAKLLKGLL-NH2)")
"FALSE"
>>> grouplabel("CC[C@H](C)[C@H](NC(=O)[C@@H]1CCCN1C(=O)[C@H](CC(C)C)NC(=O)[C@@H](N)Cc1ccccc1)C(=O)N[C@H](C(=O)N[C@@H](CCC(=O)O)C(=O)N[C@@H](CCCCN)C(=O)N[C@@H](CC(C)C)C(=O)N[C@@H](CC(C)C)C(=O)N[C@@H](CO)C(=O)NCC(=O)N[C@@H](CC(C)C)C(=O)N[C@@H](CC(C)C)C(N)=O)C(C)C (H-FLPIVEKLLSGLL-NH2)")
"FALSE"
>>> grouplabel("CC[C@H](C)[C@H](NC(=O)[C@@H]1CCCN1C(=O)[C@H](CC(C)C)NC(=O)[C@@H](N)Cc1ccccc1)C(=O)N[C@H](C(=O)N[C@@H](C)C(=O)N[C@@H](CCC(=O)O)C(=O)N[C@@H](CC(C)C)C(=O)N[C@@H](CC(C)C)C(=O)N[C@@H](CO)C(=O)NCC(=O)N[C@@H](CC(C)C)C(=O)N[C@@H](CC(C)C)C(N)=O)C(C)C (H-FLPIVAELLSGLL-NH2)")
"FALSE"
>>> grouplabel("CC(C)C[C@H](NC(=O)[C@H](CC(C)C)NC(=O)[C@H](CCC(=O)O)NC(=O)[C@H](CO)NC(=O)[C@H](CC(C)C)NC(=O)[C@H](CC(C)C)NC(=O)[C@H](CCCCN)NC(=O)[C@H](CCCCN)NC(=O)[C@@H](NC(=O)[C@H](CCCCN)NC(=O)[C@@H]1CCCN1C(=O)[C@H](CC(C)C)NC(=O)[C@@H](N)Cc1ccccc1)C(C)C)C(N)=O (H-FLPKVKKLLSELL-NH2)")
"FALSE"
>>> grouplabel("CO[C@H]1/C=C/O[C@@]2(C)Oc3c(C)c(O)c4c(O)c(c(/C=N/N5CCN(C)CC5)c(O)c4c3C2=O)NC(=O)/C(C)=C\\C=C\\[C@H](C)[C@H](O)[C@@H](C)[C@@H](O)[C@@H](C)[C@H](OC(C)=O)[C@@H]1C")
"TRUE"
>>> grouplabel("CC[C@H](C)[C@H](NC(=O)[C@@H]1CCCN1C(=O)[C@H](CCC(=O)O)NC(=O)[C@@H](N)Cc1ccccc1)C(=O)N[C@H](C(=O)N[C@@H](C)C(=O)N[C@@H](CCCCN)C(=O)N[C@@H](CC(C)C)C(=O)N[C@@H](CC(C)C)C(=O)N[C@@H](CO)C(=O)NCC(=O)N[C@@H](CC(C)C)C(=O)N[C@@H](CC(C)C)C(N)=O)C(C)C (H-FEPIVAKLLSGLL-NH2)")
"FALSE"
>>> grouplabel("CC[C@H](C)[C@H](NC(=O)[C@@H]1CCCN1C(=O)[C@H](CC(C)C)NC(=O)[C@@H](N)Cc1ccccc1)C(=O)N[C@H](C(=O)N[C@@H](C)C(=O)N[C@@H](CCCCN)C(=O)N[C@@H](CCC(=O)O)C(=O)N[C@@H](CC(C)C)C(=O)N[C@@H](CO)C(=O)NCC(=O)N[C@@H](CC(C)C)C(=O)N[C@@H](CC(C)C)C(N)=O)C(C)C (H-FLPIVAKELSGLL-NH2)")
"FALSE"
>>> grouplabel("CC(C)C[C@H](NC(=O)[C@H](CC(C)C)NC(=O)[C@H](CCCCN)NC(=O)[C@H](CCC(=O)O)NC(=O)[C@H](CC(C)C)NC(=O)[C@H](CC(C)C)NC(=O)[C@H](CCCCN)NC(=O)[C@H](C)NC(=O)[C@@H](NC(=O)[C@H](CCCCN)NC(=O)[C@@H]1CCCN1C(=O)[C@H](CC(C)C)NC(=O)[C@@H](N)Cc1ccccc1)C(C)C)C(N)=O (H-FLPKVAKLLEKLL-NH2)")
"TRUE"
>>> grouplabel("CC(C)C[C@H](NC(=O)[C@H](CC(C)C)NC(=O)CNC(=O)[C@H](CO)NC(=O)[C@H](CC(C)C)NC(=O)[C@H](CC(C)C)NC(=O)[C@H](CCCCN)NC(=O)[C@H](C)NC(=O)[C@@H](NC(=O)[C@H](CCC(=O)O)NC(=O)[C@@H]1CCCN1C(=O)[C@H](CC(C)C)NC(=O)[C@@H](N)Cc1ccccc1)C(C)C)C(N)=O (H-FLPEVAKLLSGLL-NH2)")
"FALSE"
>>> grouplabel("CC(C)C[C@H](NC(=O)[C@H](CC(C)C)NC(=O)CNC(=O)[C@H](CCC(=O)O)NC(=O)[C@H](CC(C)C)NC(=O)[C@H](CC(C)C)NC(=O)[C@H](CCCCN)NC(=O)[C@H](CCCCN)NC(=O)[C@@H](NC(=O)[C@H](CCCCN)NC(=O)[C@@H]1CCCN1C(=O)[C@H](CC(C)C)NC(=O)[C@@H](N)Cc1ccccc1)C(C)C)C(N)=O (H-FLPKVKKLLEGLL-NH2)")
"TRUE"
>>> grouplabel("CC(C)C[C@H](NC(=O)[C@H](CC(C)C)NC(=O)[C@H](CCC(=O)O)NC(=O)[C@H](CCCCN)NC(=O)[C@H](CC(C)C)NC(=O)[C@H](CC(C)C)NC(=O)[C@H](CCCCN)NC(=O)[C@H](C)NC(=O)[C@@H](NC(=O)[C@H](CCCCN)NC(=O)[C@@H]1CCCN1C(=O)[C@H](CC(C)C)NC(=O)[C@@H](N)Cc1ccccc1)C(C)C)C(N)=O (H-FLPKVAKLLKELL-NH2)")
"TRUE"
